Measured IC90, listed per entry.
Test system: MG-63 (osteosarcoma) cells
Experimental protocol: MTT cell growth inhibition, solid tumor cells
Type: cell-based
Run conditions: Homo sapiens; MG-63, 72 h, MTT; read-out: IC90
Report only the number, with the unit µg/mL understood.

Observe how each entry below is paired with its result.
[[record]]
compound = "C=C(C)COc1c(OC)cc2c3c1Oc1cc4c(cc1OC)CCN(C)[C@H]4Cc1ccc(cc1)Oc1cc(ccc1OC)C[C@@H]3N(C)CC2"
value = 1.9

[[record]]
compound = "COc1ccc2cc1Oc1ccc(cc1)C[C@H]1c3cc(c(OC)cc3CCN1C)Oc1c(OCC(O)CN3CCCC(C)C3)c(OC)cc3c1[C@H](C2)N(C)CC3 (some centres unmarked)"
value = 1.7

[[record]]
compound = "COc1ccc2cc1Oc1ccc(cc1)C[C@H]1c3cc(c(OC)cc3CCN1C)Oc1c(OC(=O)c3c(F)cccc3Cl)c(OC)cc3c1[C@H](C2)N(C)CC3"
value = 3.9

[[record]]
compound = "COc1ccc2cc1Oc1ccc(cc1)C[C@H]1c3cc(c(OC)cc3CCN1C)Oc1c(OS(=O)(=O)c3ccccc3)c(OC)cc3c1[C@H](C2)N(C)CC3"
value = 3.88

[[record]]
compound = "C=CCOc1c(OC)cc2c3c1Oc1cc4c(cc1OC)CCN(C)[C@H]4Cc1ccc(cc1)Oc1cc(ccc1OC)C[C@@H]3N(C)CC2"
value = 3.8

[[record]]
compound = "COc1ccc2cc1Oc1ccc(cc1)C[C@H]1c3cc(c(OC)cc3CCN1C)Oc1c(OS(=O)(=O)c3ccc(C)cc3)c(OC)cc3c1[C@H](C2)N(C)CC3"
value = 4.83

[[record]]
compound = "COc1ccc2cc1Oc1ccc(cc1)C[C@H]1c3cc(c(OC)cc3CCN1C)Oc1c(OC(=O)c3ccc(N(C)C)cc3)c(OC)cc3c1[C@H](C2)N(C)CC3"
value = 1.8


// moving on: another record for IC90
QUERY: Given the compound COc1ccc2cc1Oc1ccc(cc1)C[C@H]1c3cc(c(OC)cc3CCN1C)Oc1c(OC(=O)C3CC3)c(OC)cc3c1[C@H](C2)N(C)CC3 , what is its reported IC90?
RESULT: 5.72

* * *

System: H9 (acute lymphoblastic leukemia) cells
Experimental protocol: MTT cell growth inhibition, leukemia cells
Format: cell-based, human
Run conditions: Homo sapiens; H9, 72 h, MTT; read-out: IC90
Measured parameter: IC90 (µg/mL)
Please reply with the bare figure in µg/mL and do not write the unit itself.

[[record]]
molecule = "C=CCN(C)CC(O)COc1c(OC)cc2c3c1Oc1cc4c(cc1OC)CCN(C)[C@H]4Cc1ccc(cc1)Oc1cc(ccc1OC)C[C@@H]3N(C)CC2 (stereo partly drawn)"
measured_parameter = "IC90"
measurement_unit = "µg/mL"
value = 2

[[record]]
molecule = "COc1ccc2cc1Oc1ccc(cc1)C[C@H]1c3cc(c(OC)cc3CCN1C)Oc1c(OCC(O)CN3CCSCC3)c(OC)cc3c1[C@H](C2)N(C)CC3 (stereo partly drawn)"
measured_parameter = "IC90"
measurement_unit = "µg/mL"
value = 3.6

[[record]]
molecule = "COc1ccc2cc1Oc1ccc(cc1)C[C@H]1c3cc(c(OC)cc3CCN1C)Oc1c(OC(=O)c3ccc(N(C)C)cc3)c(OC)cc3c1[C@H](C2)N(C)CC3"
measured_parameter = "IC90"
measurement_unit = "µg/mL"
value = 1.8

[[record]]
molecule = "COc1ccc2cc1Oc1ccc(cc1)C[C@H]1c3cc(c(OC)cc3CCN1C)Oc1c(OCC(O)CNCC3CC3)c(OC)cc3c1[C@H](C2)N(C)CC3 (stereo partly drawn)"
measured_parameter = "IC90"
measurement_unit = "µg/mL"
value = 2.9

[[record]]
molecule = "COc1ccc2cc1Oc1ccc(cc1)C[C@H]1c3cc(c(OC)cc3CCN1C)Oc1c(OCc3cccc(F)c3F)c(OC)cc3c1[C@H](C2)N(C)CC3"
measured_parameter = "IC90"
measurement_unit = "µg/mL"
value = 3.7


API: the following record is the query input.
QUERY: Consider the molecule COc1ccc2cc1Oc1ccc(cc1)C[C@H]1c3cc(c(OC)cc3CCN1C)Oc1c(OC(=O)C3CC3)c(OC)cc3c1[C@H](C2)N(C)CC3 and give its measured IC90.
RESULT: 7.05

These entries and their values trace back to patent US9328122B2.
